- Test system: Escherichia coli TOP10
- assay.notes: shrunken log2 fold change of peptide-encoding DNA abundance (4.5 h post-induction vs induction); higher = less antimicrobial activity (less host growth inhibition)
- measurement.setup: time post-induction: 4.5 h; library: site-saturation at positions 5, 18, 19, 20
recorded.metric: shrunken log2 fold change
Lab note: jot down the number only; don't add units.

Worked examples follow.
RRIRYRPPRLPRPRPRPMTPPRP	-0.0195
RRIRLRPPRLPRPRPRPFNPPRP	-0.349
RRIRNRPPRLPRPRPRPYGQPRP	-0.124

input: Give the reported shrunken log2 fold change for RRIRHRPPRLPRPRPRPRKCPRP (system: Escherichia coli TOP10).
output: -0.116

input: Recall the recorded shrunken log2 fold change for RRIRARPPRLPRPRPRPFRFPRP with Escherichia coli TOP10 and state it.
output: 0.0596

input: Return shrunken log2 fold change measured with Escherichia coli TOP10 given this sequence: RRIRFRPPRLPRPRPRPYYSPRP
output: -0.228

input: Reported shrunken log2 fold change for Escherichia coli TOP10, given RRIRMRPPRLPRPRPRPGLDPRP ?
output: 2.44

input: Record RRIRIRPPRLPRPRPRPGWVPRP : what is its shrunken log2 fold change with Escherichia coli TOP10?
output: 0.28

input: Form entry - test system: Escherichia coli TOP10; read-out: shrunken log2 fold change; sequence: RRIRDRPPRLPRPRPRPKVSPRP
output: 0.036

input: Return shrunken log2 fold change measured with Escherichia coli TOP10 given this sequence: RRIRSRPPRLPRPRPRPVFEPRP
output: -0.0222

input: Observed shrunken log2 fold change on Escherichia coli TOP10 for RRIRIRPPRLPRPRPRPRIYPRP , please.
output: 0.00994

input: Missing value: shrunken log2 fold change, Escherichia coli TOP10, entry RRIRQRPPRLPRPRPRPAAYPRP . Fill in?
output: -0.169

input: // fetch Escherichia coli TOP10 shrunken log2 fold change for RRIRRRPPRLPRPRPRPFGKPRP
output: 0.0788

input: Observed shrunken log2 fold change on Escherichia coli TOP10 for RRIRARPPRLPRPRPRPNSPPRP , please.
output: -0.138

input: Request - read-out shrunken log2 fold change | tested on Escherichia coli TOP10 | sequence RRIRQRPPRLPRPRPRPIYAPRP
output: -0.222

---

- Test system: Escherichia coli TOP10
- assay.notes: shrunken log2 fold change of peptide-encoding DNA abundance (4.5 h post-induction vs induction); higher = less antimicrobial activity (less host growth inhibition)
- measurement.setup: time post-induction: 4.5 h; library: site-saturation at positions 5, 18, 19, 20
recorded.metric: shrunken log2 fold change

Some entries whose results are on file:
RRIRTRPPRLPRPRPRPPGNPRP	-0.0517
RRIRWRPPRLPRPRPRPGFFPRP	0.26
RRIRQRPPRLPRPRPRPACEPRP	-0.0795
RRIRERPPRLPRPRPRPPMRPRP	0.779
RRIRKRPPRLPRPRPRPARWPRP	0.464
RRIRDRPPRLPRPRPRPSPVPRP	0.0438
RRIRCRPPRLPRPRPRPYCQPRP	-0.219

Okay, now this sequence:
input: Entry under review: RRIRERPPRLPRPRPRPIYLPRP . Reported shrunken log2 fold change?
output: -0.649

---

- System: Escherichia coli TOP10;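 also: peptides expressed intracellularly from a pBAD plasmid library in pooled LB shake-flask culture, induced with 0.3% L-arabinose, DNA abundance read by NGS, three biological replicates, DESeq2 with apeglm shrinkage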
- assay.notes: shrunken log2 fold change of peptide-encoding DNA abundance (4.5 h post-induction vs induction); higher = less antimicrobial activity (less host growth inhibition)
- measurement.setup: time post-induction: 4.5 h; library: site-saturation at positions 5, 18, 19, 20
Rule: shrunken log2 fold change under 0.2 gives No, otherwise Yes.

RRIRVRPPRLPRPRPRPPKQPRP	No
RRIRMRPPRLPRPRPRPLLWPRP	Yes
RRIRMRPPRLPRPRPRPPFSPRP	Yes
RRIRDRPPRLPRPRPRPYINPRP	No
RRIRIRPPRLPRPRPRPIIFPRP	No
RRIRRRPPRLPRPRPRPHSPPRP	Yes

input: shrunken log2 fold change >= 0.2 for RRIRTRPPRLPRPRPRPTWMPRP ?
output: No

input: Answer whether shrunken log2 fold change of RRIRSRPPRLPRPRPRPDTSPRP is greater than or equal to 0.2.
output: No

input: Determine whether measured shrunken log2 fold change meets or exceeds 0.2 for RRIRDRPPRLPRPRPRPSYFPRP
output: No

input: Does the sequence RRIRDRPPRLPRPRPRPGVDPRP have recorded shrunken log2 fold change that is 0.2 or more?
output: Yes

input: Quick check, shrunken log2 fold change >= 0.2? RRIRMRPPRLPRPRPRPDAAPRP
output: Yes

input: Could you verify whether the entry RRIRERPPRLPRPRPRPVDIPRP shows shrunken log2 fold change of no less than 0.2?
output: No

input: Entry RRIRSRPPRLPRPRPRPWDDPRP : is its shrunken log2 fold change no less than 0.2?
output: No

input: Check this sequence for shrunken log2 fold change at or above 0.2: RRIRKRPPRLPRPRPRPENPPRP
output: No

input: shrunken log2 fold change >= 0.2 for RRIRTRPPRLPRPRPRPANLPRP ?
output: No
